- RUN DESCRIPTION: Clearance in mouse at 1 mg/kg, iv measured after 24 hrs by LC/MS/MS analysis
- Format: ADME, organism-based
- EXPERIMENTAL CONDITIONS: in vivo
READOUT TYPE: clearance (mL/min/kg)
Write the value in mL/min/kg as a bare number.

For record CCn1c(=O)c2ccnn2c2cc(N)c(C(=O)NCc3cncnc3)cc21 the listed clearance is 20.5

###

- TESTED SYSTEM: Phosphatidylinositol 4,5-bisphosphate 3-kinase catalytic subunit delta isoform (Homo sapiens)
- Sequence (O00329 whole entry, canonical isoform): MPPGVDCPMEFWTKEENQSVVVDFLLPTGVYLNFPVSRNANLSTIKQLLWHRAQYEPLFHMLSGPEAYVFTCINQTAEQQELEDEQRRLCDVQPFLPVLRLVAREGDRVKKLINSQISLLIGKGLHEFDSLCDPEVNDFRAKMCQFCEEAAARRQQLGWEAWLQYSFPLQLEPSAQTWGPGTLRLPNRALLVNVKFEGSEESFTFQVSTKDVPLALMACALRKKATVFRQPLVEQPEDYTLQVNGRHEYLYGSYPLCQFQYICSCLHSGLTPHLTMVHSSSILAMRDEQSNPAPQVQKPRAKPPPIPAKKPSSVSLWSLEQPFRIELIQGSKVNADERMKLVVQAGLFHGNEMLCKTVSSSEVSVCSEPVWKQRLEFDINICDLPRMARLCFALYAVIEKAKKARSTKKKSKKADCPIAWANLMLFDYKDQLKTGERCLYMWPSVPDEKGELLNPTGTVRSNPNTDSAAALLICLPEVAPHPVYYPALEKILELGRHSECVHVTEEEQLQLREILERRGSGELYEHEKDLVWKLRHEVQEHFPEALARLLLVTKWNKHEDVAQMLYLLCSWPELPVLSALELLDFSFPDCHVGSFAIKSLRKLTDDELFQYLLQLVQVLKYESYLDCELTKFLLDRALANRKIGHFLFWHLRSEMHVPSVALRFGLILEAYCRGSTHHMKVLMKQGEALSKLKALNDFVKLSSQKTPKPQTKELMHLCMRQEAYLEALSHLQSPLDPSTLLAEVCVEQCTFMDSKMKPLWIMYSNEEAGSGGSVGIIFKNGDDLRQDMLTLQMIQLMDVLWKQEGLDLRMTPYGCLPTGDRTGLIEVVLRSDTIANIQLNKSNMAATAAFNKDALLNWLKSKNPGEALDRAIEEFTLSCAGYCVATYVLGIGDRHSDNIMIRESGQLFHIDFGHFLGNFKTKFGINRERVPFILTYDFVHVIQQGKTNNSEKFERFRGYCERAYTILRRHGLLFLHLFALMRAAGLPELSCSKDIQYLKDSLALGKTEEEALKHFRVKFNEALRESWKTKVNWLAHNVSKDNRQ
- RUN DESCRIPTION: Inhibition of PI3Kdelta (unknown origin) using PIP2:PS as substrate preincubated for 1 hr followed by ATP and substate addition and measured after 1 hr by ADP-glo reagent based assay
READOUT TYPE: pIC50
Give only the number. pIC50 is defined as minus log10 of concentration in molar units.

Query CCn1c(=O)c2ccnn2c2cc(N)c(C(=O)NCc3cncnc3)cc21 yields pIC50 of 5.39

Value of pIC50 reported for the compound CCn1c(=O)c2ccnn2c2cc(N)c(C(=O)NCc3cccnc3)cc21 is 5.24
